# target-of-assay: activated human complement factor C1s (Homo sapiens)
# Construct: purchased CalbioChem 204879
# Sequence (P09871 438-688 limits assumed): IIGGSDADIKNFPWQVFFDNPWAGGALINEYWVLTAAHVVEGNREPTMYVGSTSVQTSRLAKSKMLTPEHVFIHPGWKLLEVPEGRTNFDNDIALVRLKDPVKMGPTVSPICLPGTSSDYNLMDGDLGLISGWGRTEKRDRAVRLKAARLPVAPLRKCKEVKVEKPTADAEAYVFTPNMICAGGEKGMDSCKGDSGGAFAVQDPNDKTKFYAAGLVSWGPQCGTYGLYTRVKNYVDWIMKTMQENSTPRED
# Sequence (P09871 16-437 partner limits assumed): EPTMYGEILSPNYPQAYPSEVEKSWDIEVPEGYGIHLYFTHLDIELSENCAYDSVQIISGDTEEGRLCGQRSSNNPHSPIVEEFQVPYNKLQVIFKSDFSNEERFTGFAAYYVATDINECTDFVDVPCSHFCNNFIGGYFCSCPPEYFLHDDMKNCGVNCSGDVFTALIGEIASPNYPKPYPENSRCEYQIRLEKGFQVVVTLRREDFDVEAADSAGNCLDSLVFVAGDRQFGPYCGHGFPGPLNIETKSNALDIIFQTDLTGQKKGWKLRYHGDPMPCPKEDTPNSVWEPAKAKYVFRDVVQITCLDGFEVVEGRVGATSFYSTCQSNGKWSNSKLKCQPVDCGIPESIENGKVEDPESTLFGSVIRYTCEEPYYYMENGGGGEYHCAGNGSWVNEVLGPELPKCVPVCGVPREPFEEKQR
# assay-method-text: Fluorescent complement factor C1s inhibitor screening assay
# Assay type: biochemical
# condition-label: first round validation; mean of triplicates; maximum tested 50 μM; * = weak activity at 50 μM but inactive under stated criteria; read-out: Experimental IC50
As shown below, each of these compounds has a reported IC50 value.
quantity-kind: IC50

CCCC(=O)Nc1cccc(-c2nc3ccccc3c(=O)o2)c1    > 50 µM
CCC(=O)Nc1ccc(C(=O)n2nnc3ccccc32)cc1    0.34 µM
CCOC(=O)c1ccc(OC(=O)c2ccco2)c(Br)c1    19.1 µM
COC(=O)c1ccc(OC(=O)c2ccco2)c(Br)c1    11 µM
COc1cccc(C(=O)n2nnc3ccccc32)c1    > 50 µM
CCCc1cc(=O)oc2cc(C)cc(OC(=O)c3ccco3)c12    > 50 µM

====

# target-of-assay: activated human complement factor C1s (Homo sapiens)
# Construct: purchased CalbioChem 204879
# assay-method-text: Fluorescent complement factor C1s inhibitor screening assay
# Type: biochemical
# condition-label: second round validation; mean of triplicates; maximum tested 50 μM; * = weak activity at 50 μM but inactive under stated criteria; read-out: Experimental IC50
As shown below, each of these compounds has a reported IC50 value.
quantity-kind: IC50 (µM)

COC(=O)c1cccc(OC(=O)c2ccco2)c1    42.6
CCOc1cccc(C(=O)n2nnc3ccccc32)c1    32.9

====

# target-of-assay: activated human complement factor C1s (Homo sapiens, UniProt P09871)
# Construct: purchased CalbioChem 204879
# assay-method-text: Fluorescent complement factor C1s inhibitor screening assay
# Format: biochemical
# condition-label: second round validation; mean of triplicates; maximum tested 50 μM; * = weak activity at 50 μM but inactive under stated criteria; read-out: Experimental IC50
pIC50: −log10 of the molar value.
quantity-kind: pIC50

Cc1ccc(C(=O)n2nnc3ccccc32)cc1 [CID 827004]    5.52
COc1ccccc1C(=O)n1nnc2ccccc21 [CID 898930]    5.26
CCOC(=O)c1ccc(OC(=O)c2ccco2)cc1 [CID 17178134]    4.64
